molecular target: human A2a receptor (Homo sapiens); construct: purchased Perkin-Elmer RBHA2AM400UA; host or cells: HEK293 cells, used as a membrane preparation; assay: A2a receptor competition binding assay (Scintillation Proximity); conditions: membranes from HEK293 cells expressing human A2a receptor; 0.5 nM tritiated ligand; Cheng-Prusoff; read-out: A2a Ki
Sequence (P29274 whole entry): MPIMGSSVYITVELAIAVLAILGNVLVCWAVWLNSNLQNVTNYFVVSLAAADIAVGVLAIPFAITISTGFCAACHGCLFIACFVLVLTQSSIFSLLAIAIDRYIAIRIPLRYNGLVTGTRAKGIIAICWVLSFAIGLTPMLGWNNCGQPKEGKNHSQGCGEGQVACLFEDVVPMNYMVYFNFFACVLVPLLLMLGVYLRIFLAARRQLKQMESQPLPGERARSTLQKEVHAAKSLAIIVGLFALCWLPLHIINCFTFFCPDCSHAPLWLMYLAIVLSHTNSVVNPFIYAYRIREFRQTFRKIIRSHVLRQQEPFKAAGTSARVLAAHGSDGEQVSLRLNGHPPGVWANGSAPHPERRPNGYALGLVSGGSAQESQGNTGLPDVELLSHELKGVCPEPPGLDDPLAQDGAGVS
pKi: −log10 of the molar value.
Label TRUE when pKi is at or above 8; anything below gets FALSE.

{"Compound": "Nc1nc2c(F)cccc2c2nc(Cc3ccccc3CN3CCN(c4nc5ccccc5o4)CC3)cn12", "Class assignment": "FALSE"}
{"Compound": "COCCOc1ccc(N2CCN(c3ccccc3CNC(=O)c3cn4c(N)nc5c(F)cccc5c4n3)CC2)cc1", "Class assignment": "TRUE"}
{"Compound": "COc1cccc2c1nc(N)n1cc(C(=O)N3CCCC3C(C)C)nc21 (stereo not drawn)", "Class assignment": "TRUE"}
{"Compound": "CC(=O)N1CCc2c(Cc3cn4c(N)nc5c(F)cccc5c4n3)cccc2C1", "Class assignment": "TRUE"}
{"Compound": "COc1cccc2c1nc(N)n1cc(C(=O)N3C[C@@H]4C[C@H]3CO4)nc21", "Class assignment": "FALSE"}
{"Compound": "COc1cccc2c1nc(N)n1cc(CN3CCc4cccnc4C3)nc21", "Class assignment": "TRUE"}
{"Compound": "COc1cccc2c1nc(N)n1cc(Cc3cccc4c3CCN(C(=O)Cc3ccc(F)c(F)c3)C4)nc21", "Class assignment": "TRUE"}
{"Compound": "COc1cccc2c1nc(N)n1cc(CNCc3cccnc3)nc21", "Class assignment": "FALSE"}
